B1: DULLARD (parent)
chain: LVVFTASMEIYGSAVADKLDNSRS

Variants of: B1
Assay: protein stability index of a GFP-peptide fusion (GPS, HEK-293T) (PSI 1-6); higher = more stable;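 further: lentivirally expressed fusions sorted by FACS into six bins by GFP to DsRed ratio, PSI derived from sequencing read proportions per bin multiplied by bin number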
Conditions: c terminus: a fixed tail appended
Binary classification by protein stability index, with 2 as an inclusive lower bound for TRUE; all other cases are FALSE.

| mutantLabel | groupLabel |
| --- | --- |
| D20A | TRUE |
| N21G | FALSE |
| V15Y | FALSE |
| E9D | TRUE |
| K18L | TRUE |
| R23G | FALSE |
| T5R | TRUE |
| A6Y | TRUE |
| L1Q | TRUE |
| N21A | TRUE |
| V3H | TRUE |
| M8G | FALSE |
| L1M | TRUE |
| S7C | TRUE |
| D17K | TRUE |
| I10V | TRUE |
| G12L | TRUE |
| V3Q | TRUE |
| V15E | TRUE |
| F4T | FALSE |
| L19R | FALSE |
| A14T | TRUE |
| E9A | TRUE |
| T5F | TRUE |
| A6I | TRUE |
| N21S | TRUE |
| S13G | FALSE |
| S7K | TRUE |
| F4H | TRUE |
| V3A | TRUE |
| L1D | TRUE |
| F4I | TRUE |
| G12T | TRUE |
| T5A | TRUE |
| M8H | TRUE |
| S22D | TRUE |
| V3W | FALSE |
| M8D | TRUE |
| T5Q | TRUE |
| D20C | FALSE |
| D20L | TRUE |
| Y11S | TRUE |
